# System: M14 melanoma
# Test: NCI tumour cell line growth inhibition, 48 h
Measured Attribute: TGI

Observe how each entry below is paired with its result.
Given Smiles: CN1CCC2(CC1)C(=O)N(N1CCCCCC1)C(=O)N2c1ccccc1
Measured Attribute: TGI
Result: > 100 µM
//
Given Smiles: COc1cc(/C=C/C(C)=O)ccc1OP(=O)(O)O
Measured Attribute: TGI
Result: > 100 µM
//
Given Smiles: CC(=O)Nc1ncc(Sc2ccccc2C(=O)O)s1
Measured Attribute: TGI
Result: > 100 µM
//
Given Smiles: O=C(COc1cccc(/C=C2\COc3ccccc3C2=O)c1)Nc1nccs1
Measured Attribute: TGI
Result: 3.71 µM
//
Given Smiles: CCOc1ccc2c(c1)/C(=C(\C(Cl)=C(Cl)Cl)[N+](=O)[O-])N2
Measured Attribute: TGI
Result: > 100 µM

Could you now look at the following compound, please?
INPUT: Give its TGI value. Item: Cc1cccc(Nc2cn(COCc3ccccc3)c(=O)[nH]c2=O)c1
OUTPUT: > 100 µM
